Values were extracted from patent US10918645B2.

assay.system: PKCz (Homo sapiens (Human))
Sequence (Q05513 whole entry): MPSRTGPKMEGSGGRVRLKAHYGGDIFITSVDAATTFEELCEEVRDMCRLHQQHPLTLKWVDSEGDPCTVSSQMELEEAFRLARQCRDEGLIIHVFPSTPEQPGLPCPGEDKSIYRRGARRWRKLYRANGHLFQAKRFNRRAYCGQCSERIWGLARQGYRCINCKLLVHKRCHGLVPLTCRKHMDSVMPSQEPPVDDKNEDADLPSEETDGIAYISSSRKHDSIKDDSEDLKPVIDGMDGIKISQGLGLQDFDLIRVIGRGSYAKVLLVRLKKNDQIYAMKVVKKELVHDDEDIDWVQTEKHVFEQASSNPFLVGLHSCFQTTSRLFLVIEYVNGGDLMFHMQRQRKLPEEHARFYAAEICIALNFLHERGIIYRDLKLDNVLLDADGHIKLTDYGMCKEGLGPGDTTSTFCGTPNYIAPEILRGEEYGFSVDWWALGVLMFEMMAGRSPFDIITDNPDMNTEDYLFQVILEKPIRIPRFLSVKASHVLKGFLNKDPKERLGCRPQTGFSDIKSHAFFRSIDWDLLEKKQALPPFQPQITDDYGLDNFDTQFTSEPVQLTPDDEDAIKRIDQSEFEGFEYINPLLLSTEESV
experiment.notes: PKCz kinase selectivity assay
Assay type: biochemical
cond: 1 μM inhibitor concentration
# percentage inhibition of PKCz values compiled below
Number in percentage, nothing else.

Query: Please report the measured percentage inhibition of PKCz for CC(C)n1ncc2c1CN(C1CCN(C)CC1)c1nccc3[nH]nc-2c13
Reply: 1

* * *

assay.system: PKD1 (Homo sapiens (Human))
Sequence (Q15139 whole entry): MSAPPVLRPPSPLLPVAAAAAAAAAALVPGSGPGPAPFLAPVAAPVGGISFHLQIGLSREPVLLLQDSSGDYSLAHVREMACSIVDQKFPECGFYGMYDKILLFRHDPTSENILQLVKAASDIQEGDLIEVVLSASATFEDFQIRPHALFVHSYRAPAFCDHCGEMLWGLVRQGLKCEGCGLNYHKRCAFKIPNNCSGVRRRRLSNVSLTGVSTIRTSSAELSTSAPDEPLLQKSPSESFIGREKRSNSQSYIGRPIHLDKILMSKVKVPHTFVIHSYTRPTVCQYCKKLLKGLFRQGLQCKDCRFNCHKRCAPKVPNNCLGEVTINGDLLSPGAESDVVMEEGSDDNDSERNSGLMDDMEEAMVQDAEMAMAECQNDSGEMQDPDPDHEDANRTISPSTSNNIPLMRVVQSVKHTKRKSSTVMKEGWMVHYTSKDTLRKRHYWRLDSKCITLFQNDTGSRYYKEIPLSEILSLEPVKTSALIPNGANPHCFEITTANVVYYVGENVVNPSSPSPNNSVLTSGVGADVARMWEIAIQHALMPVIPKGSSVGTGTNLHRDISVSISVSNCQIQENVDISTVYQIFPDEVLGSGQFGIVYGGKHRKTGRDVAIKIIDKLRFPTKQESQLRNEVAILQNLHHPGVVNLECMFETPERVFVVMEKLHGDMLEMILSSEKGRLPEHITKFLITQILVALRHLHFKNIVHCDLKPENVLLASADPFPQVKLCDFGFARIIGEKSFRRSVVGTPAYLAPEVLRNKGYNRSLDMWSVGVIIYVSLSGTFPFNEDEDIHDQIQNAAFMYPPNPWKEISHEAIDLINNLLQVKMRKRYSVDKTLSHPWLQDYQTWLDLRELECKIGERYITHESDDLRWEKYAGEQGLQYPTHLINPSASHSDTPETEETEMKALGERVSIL
experiment.notes: PKD1 kinase selectivity assay
Format: biochemical
cond: 1 μM inhibitor concentration
Method: PKD1 (5-20 mU diluted in 50 mM Tris pH 7.5, 0.1 mM EGTA, 0.1% b-mercaptoethanol, 1 mg/ml BSA) is assayed substrate peptide ([…]) in a final volume of 25.5 μl containing 50 mM Tris pH 7.5, 0.05% b-mercaptoethanol, 30 μM substrate peptide, 10 mM magnesium acetate and 0.05 mM [33P-g-ATP] (50-1000 cpm/pmole) and incubated for 30 min at room temperature. […]
Values of percentage inhibition of PKD1 greater than or equal to 50 percentage map to 1; values below map to -1.

CN1CCC(N2Cc3ccccc3-c3n[nH]c4ccnc2c34)CC1 [Example 55] :: 1

Query: Does the reported percentage inhibition of PKD1 for c1cc2[nH]nc3c2c(n1)N(C1CCOCC1)CCC3 [Example 29] fall at or above the 50 percentage mark?
Reply: -1

Query: Does the reported percentage inhibition of PKD1 for c1cc2[nH]nc3c2c(n1)N(C1CCC1)CCC3 [Example 22] fall at or above the 50 percentage mark?
Reply: -1

Query: Does the reported percentage inhibition of PKD1 for CC(C)n1ncc2c1CN(C1CCN(C)CC1)c1nccc3[nH]nc-2c13 [Example 68] fall at or above the 50 percentage mark?
Reply: -1

Query: Does the reported percentage inhibition of PKD1 for c1cc2[nH]nc3c2c(n1)N(C1CCCC1)CCC3 [Example 23] fall at or above the 50 percentage mark?
Reply: -1

* * *

# percentage inhibition of MLK3 values compiled below
assay.system: UniProt:Q16584
Sequence (Q16584 whole entry, species assumed): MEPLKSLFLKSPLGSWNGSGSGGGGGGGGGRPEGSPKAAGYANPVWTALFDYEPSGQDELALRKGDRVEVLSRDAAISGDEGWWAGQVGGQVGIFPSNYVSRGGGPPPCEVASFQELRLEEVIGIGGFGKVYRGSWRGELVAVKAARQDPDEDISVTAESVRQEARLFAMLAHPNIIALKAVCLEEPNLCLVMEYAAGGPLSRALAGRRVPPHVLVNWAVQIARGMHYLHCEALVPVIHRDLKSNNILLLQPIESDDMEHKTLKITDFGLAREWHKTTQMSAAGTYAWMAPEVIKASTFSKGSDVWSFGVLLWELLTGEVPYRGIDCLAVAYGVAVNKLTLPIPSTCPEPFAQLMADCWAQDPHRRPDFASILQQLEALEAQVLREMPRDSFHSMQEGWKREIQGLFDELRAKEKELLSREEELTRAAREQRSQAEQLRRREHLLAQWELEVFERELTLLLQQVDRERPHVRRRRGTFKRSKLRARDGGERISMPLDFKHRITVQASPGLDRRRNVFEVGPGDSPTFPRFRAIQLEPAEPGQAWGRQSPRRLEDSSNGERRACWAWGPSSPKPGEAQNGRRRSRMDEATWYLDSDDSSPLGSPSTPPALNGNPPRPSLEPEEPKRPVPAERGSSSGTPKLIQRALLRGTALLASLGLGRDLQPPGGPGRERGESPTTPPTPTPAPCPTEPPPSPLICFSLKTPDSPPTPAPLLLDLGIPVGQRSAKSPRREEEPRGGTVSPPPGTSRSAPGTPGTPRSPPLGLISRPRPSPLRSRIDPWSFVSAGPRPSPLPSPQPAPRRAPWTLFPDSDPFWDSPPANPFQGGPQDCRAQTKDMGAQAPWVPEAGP
experiment.notes: MLK3 kinase selectivity assay
Type: biochemical
cond: 1 μM inhibitor concentration
Description: MLK3 (5-20 mU diluted in 50 mM Tris pH 7.5, 0.1 mM EGTA, 0.1% 0-mercaptoethanol, 1 mg/ml BSA) is assayed against MBP in a final volume of 25.5 μl containing 50 mM Tris pH 7.5, 0.1 mM EGTA, 0.33 mg/ml MBP, 10 mM magnesium acetate and 0.02 mM [33P-γ-ATP] (50-1000 cpm/pmole) and incubated for 30 min at room temperature. Assays are stopped by addition of 5 μl of 0.5 M (3%) orthophosphoric acid and then harvested onto P81 Unifilter plates with a wash buffer of 50 mM orthophosphoric acid.
Number in percentage, nothing else.

The examples below pair each entry with its known result.
CN1CCC(N2Cc3ccccc3-c3n[nH]c4ccnc2c34)CC1 :: 6
c1cc2[nH]nc3c2c(n1)N(C1CCCC1)CCC3 :: 4
c1cc2[nH]nc3c2c(n1)N(C1CCC1)CCC3 :: 7
CC(C)n1ncc2c1CN(C1CCN(C)CC1)c1nccc3[nH]nc-2c13 :: 4

Query: GET percentage inhibition of MLK3 where system = UniProt:Q16584 and item = c1cc2[nH]nc3c2c(n1)N(C1CCOCC1)CCC3
Reply: 8

* * *

assay.system: RSK1 (Homo sapiens (Human), UniProt Q15418)
Sequence (Q15418 whole entry, species assumed): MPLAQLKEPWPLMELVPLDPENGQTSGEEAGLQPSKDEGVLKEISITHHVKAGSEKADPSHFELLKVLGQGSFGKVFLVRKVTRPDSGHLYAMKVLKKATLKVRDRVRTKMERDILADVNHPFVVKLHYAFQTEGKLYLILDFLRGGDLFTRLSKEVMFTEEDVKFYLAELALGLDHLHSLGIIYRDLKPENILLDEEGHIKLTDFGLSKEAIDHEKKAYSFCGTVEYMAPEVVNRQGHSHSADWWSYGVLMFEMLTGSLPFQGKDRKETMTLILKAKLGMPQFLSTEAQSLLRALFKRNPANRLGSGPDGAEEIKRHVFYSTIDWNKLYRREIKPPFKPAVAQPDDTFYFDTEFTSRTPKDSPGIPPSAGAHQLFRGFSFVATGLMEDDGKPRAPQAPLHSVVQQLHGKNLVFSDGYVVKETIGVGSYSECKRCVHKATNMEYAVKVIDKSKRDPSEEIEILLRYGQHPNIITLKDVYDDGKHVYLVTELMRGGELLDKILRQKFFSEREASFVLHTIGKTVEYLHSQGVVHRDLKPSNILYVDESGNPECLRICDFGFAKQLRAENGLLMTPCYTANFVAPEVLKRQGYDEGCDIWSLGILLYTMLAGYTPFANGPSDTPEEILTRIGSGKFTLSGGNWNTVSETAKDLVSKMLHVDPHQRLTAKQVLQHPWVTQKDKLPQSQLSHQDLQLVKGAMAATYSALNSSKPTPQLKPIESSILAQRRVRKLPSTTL
experiment.notes: RSK1 kinase selectivity assay
Assay type: biochemical
cond: 1 μM inhibitor concentration
measure.name: percentage inhibition of RSK1 (percentage)
Number in percentage, nothing else.

The examples below pair each entry with its known result.
CC(C)n1ncc2c1CN(C1CCN(C)CC1)c1nccc3[nH]nc-2c13 [Example 68] :: 69
c1cc2[nH]nc3c2c(n1)N(C1CCC1)CCC3 [Example 22] :: 0
CN1CCC(N2Cc3ccccc3-c3n[nH]c4ccnc2c34)CC1 [Example 55] :: 41
c1cc2[nH]nc3c2c(n1)N(C1CCCC1)CCC3 [Example 23] :: 0

Consider now this further compound.
Query: Please report the measured percentage inhibition of RSK1 for c1cc2[nH]nc3c2c(n1)N(C1CCOCC1)CCC3 [Example 29]
Reply: 10
